Data credit: PubChem BioAssay (NCI)

# procedure.text: NCI Yeast Anticancer Drug Screen. Data for the mlh1 strain (AID 171);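 further: 0% = growth of vehicle-treated control cultures of the same strain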
# conditions: S. cerevisiae mlh1 strain growth inhibition; at 33.0 µM; hits give high values
Compounds without any hit were thinned out: in the full panel of roughly 79,000, 15% have a hit.
quantity: growth inhibition (%)
Your answer should be a plain number; it is taken to be in %.

Below: 5 compounds and their reported growth inhibition.
- compound: "Cc1ccnc2c(O)cccc12"
  growth inhibition (%): 100
- compound: "CC(=O)NC(c1nc2cc(C)c(C)cc2[nH]1)c1nc2cc(C)c(C)cc2[nH]1"
  growth inhibition (%): 19
- compound: "CCCCCCCCNCCCCCCCC"
  growth inhibition (%): 99
- compound: "Oc1c2c(c(O)c3ccccc13)C1(N=N2)c2ccccc2Oc2ccccc21"
  growth inhibition (%): 97
- compound: "Cc1cccc2c(Cl)c3cccc(C)c3nc12"
  growth inhibition (%): 12

We next turn to a different compound, shown below.
Task: growth inhibition lookup needed for CCCCCCCN(CCCCCCC)CC(=O)c1ccc2cc(Cl)c3ccccc3c2c1 , thanks.
Output: 97

----------
# procedure.text: NCI Yeast Anticancer Drug Screen. Data for the wt1 strain (AID 149);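 further: 0% = growth of vehicle-treated wt1 cultures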
# conditions: S. cerevisiae wt1 strain (SPY 50644) growth inhibition; at 100.0 µM; hits give high values
Compounds without any hit were thinned out: in the full panel of roughly 79,000, 15% have a hit.
// values below are reported growth inhibition
Number in %, nothing else.

- molecule: "CCN(CC)CCCNc1ccc([N+](=O)[O-])c2nc3ccc(OC)cc3c(NCCCN(CC)CC)c12"
  test.value: 0
- molecule: "CC(C)OC(=O)NNc1cc(Cl)ccc1Cl"
  test.value: 31

Task: Field request: growth inhibition | item: CC(C)=CCC/C(C)=C/CN1C(=O)C=CC1=O
Output: 99

Task: Give its growth inhibition value. Item: Nc1ccc(S(=O)(=O)Nc2nc3c(c(=O)[nH]2)CCCC3)cc1
Output: 100

Task: So what does the record say about growth inhibition for CN(C)CCNC(=Cc1ccc2ccccc2[n+]1C)NCCN(C)C ?
Output: 0

----------
growth inhibition values by entry
# procedure.text: NCI Yeast Anticancer Drug Screen. Data for the mgt1 strain (AID 153)
# conditions: S. cerevisiae mgt1 mutant growth inhibition; at 33.0 µM; hits give high values
About 79,000 compounds went through this panel and 15% of them were active in at least one assay; those are over-represented in the sample as a whole. Activity calls are given as the source filed them. Cut-off read from the data, not from the text of the source: active = growth inhibition above about 70%; inactive = the rest.

- molecule: "O=C(NC(N1CCN(c2cc3c(cc2F)c(=O)c(C(=O)O)cn3C2CC2)CC1)(C(F)(F)F)C(F)(F)F)c1ccccc1"
  growth inhibition: "6% (inactive)"

Task: Look up growth inhibition for this molecule: CC(=O)O[C@H]1CC[C@@]2(C)C(=CC[C@@H]3C2CC[C@]2(C)C(=O)NC(=O)CC32)C1 (stereo partly specified)
Output: 76% (active)

Task: Quick check: growth inhibition of O/N=c1/ccn(O)c2ccccc12 ?
Output: 51% (inactive)

Task: Consider the molecule shown here: CC(=O)Oc1ccc2c(c1)Cc1cc(N3C(=O)C=CC3=O)ccc1-2 What is its recorded growth inhibition?
Output: 98% (active)

Task: Which growth inhibition reading was recorded for the molecule CC1=CC(C)(C)SC(SSSC2=NC(C)=CC(C)(C)S2)=N1 ?
Output: 7% (inactive)

----------
# procedure.text: NCI Yeast Anticancer Drug Screen. Data for the CLN2oe strain (AID 163);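 further: 0% = growth of vehicle-only control cultures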
# conditions: S. cerevisiae CLN2oe strain, at 100.0 µM
About 79,000 compounds went through this panel and 15% of them were active in at least one assay; those are over-represented in the sample as a whole. Activity calls are given as the source filed them. Rule as the data show it: active = growth inhibition above about 70%; inactive = the rest.
Parameter call: string, one of YES (active), NO (inactive)

- compound: "COc1ccc2cc3c4cc5c(cc4cc[n+]3cc2c1OC)OCO5"
  discrete.label: "YES"
- compound: "O=S(=O)(c1ccccc1)N1CN2CN(C1)CN(S(=O)(=O)c1ccccc1)C2"
  discrete.label: "NO"

Would you kindly look at the next entry?
Task: Name the outcome recorded for COc1ccc(/C=C2\SC(=S)N(/C=C3\C(=O)N(c4ccccc4)N=C3C)C2=O)cc1OC in the assay.
Output: YES

----------
# procedure.text: NCI Yeast Anticancer Drug Screen. Data for the rad52 strain (AID 147);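 further: 0% = growth of vehicle-treated control cultures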
# conditions: S. cerevisiae rad52 mutant growth inhibition; at 100.0 µM; hits give high values
The panel holds about 79,000 compounds, 15% with a hit somewhere; the sample as a whole holds those more often.
quantity: growth inhibition (%)
A number alone suffices; assume %.

- compound: "ClCCCOc1c(Cl)cc(Cl)cc1Cl"
  growth inhibition, %: 10
- compound: "CC1(c2ccccc2)O[C@@H]2C[C@H]3[C@@H]4CCC5=CC(=O)C=C[C@]5(C)[C@@]4(F)[C@@H](O)C[C@]3(C)[C@]2(C(=O)CO)O1 (some centres not stated)"
  growth inhibition, %: 98
- compound: "CC(C)Cc1ncc(CCCN=C(N)N)[nH]c1=O"
  growth inhibition, %: -5
- compound: "CCCCCCCSCC1C(=O)C23C(O)C1CCC2C12COC3(O)C(O)C1C(C)(C)CCC2O (configuration not stated)"
  growth inhibition, %: 85

Task: Request the reported growth inhibition associated with O=CC1(F)CC1(c1ccccc1)c1ccccc1 (configuration not stated)
Output: 81

Task: Which growth inhibition is listed for CNCC(C)CNC ?
Output: -52

----------
# procedure.text: NCI Yeast Anticancer Drug Screen. Data for the mgt1 strain (AID 153)
# conditions: S. cerevisiae mgt1 mutant growth inhibition; at 100.0 µM; hits give high values
# Experimental: Growth inhibition of yeast strains with defined genetic alterations is measured as a screen for potential anti-cancer activity. Selected strains with alterations in DNA damage repair or cell cycle control were exposed to compounds and growth inhibition was measured relative to vehicle treated controls. The strain used in this assay is mgt1
Compounds without any hit were thinned out: in the full panel of roughly 79,000, 15% have a hit.
# growth inhibition listing for each entry below
The answer is to be given in %; state only the numeric part.

Use the examples below as a reference point.
- entry.smiles: "CN(C)CC(CN(C)C)C(=O)/C=C/c1ccc(Cl)cc1Cl"
  unit.label: "%"
  growth inhibition: 98
- entry.smiles: "COc1ccc2nc3cccc([N+](=O)[O-])c3c(NCCNCCO)c2c1"
  unit.label: "%"
  growth inhibition: 75
- entry.smiles: "CS(=O)(=O)O.[Ag]"
  unit.label: "%"
  growth inhibition: 98
- entry.smiles: "CC(C)OP(=O)(OC(C)C)C(=NCCO)NNc1ccc([N+](=O)[O-])cc1"
  unit.label: "%"
  growth inhibition: 74
- entry.smiles: "O=C1C(=O)N(c2ccccc2)[C@@]2(c3ccccc3)C(=Nc3ccccc3)OC(c3ccccc3)=C12"
  unit.label: "%"
  growth inhibition: 97

Task: // query growth inhibition value for entry CCN(CC)CCNc1ccc2nc(C)n3c4ccc(OC)cc4c(=O)c1c23
Output: 16

Task: Any idea what growth inhibition was measured for Cc1cc(Cl)ccc1NC(=O)/C(Cl)=C(/Cl)C(=O)O ?
Output: 100

Task: Could you share which growth inhibition value was measured for CN(C)N=Nc1ccc(N(C)C)cc1 ?
Output: 12

Task: Which growth inhibition is listed for CC1=CC(=O)C=CC1=Nc1cc(Cl)c(O)c(Cl)c1 ?
Output: 94

Task: Please give the measured growth inhibition for this compound: CCOP(=O)(OCC)/C(C#N)=C\c1cccc2ccccc12
Output: 98

Task: For the compound C[n+]1c(-c2ccc(/C=N/NC(=O)c3ccc(C(=O)N/N=C/c4ccc(-c5cn6ccccc6[n+]5C)cc4)cc3)cc2)cn2ccccc21 , what growth inhibition is on record?
Output: 71

----------
# procedure.text: NCI Yeast Anticancer Drug Screen. Data for the mlh1 rad18 strain (AID 175)
# conditions: S. cerevisiae mlh1 rad18 strain growth inhibition; at 5.0 µM (retest, dose inferred, filed as 0.5)
About 79,000 compounds went through this panel and 15% of them were active in at least one assay; those are over-represented in the sample as a whole. Calls of active or inactive are those of the source. No stated cut-off is given here; in the data, active means growth inhibition above about 70%; inactive means the rest.
Hello, when you answer, please use one of the following outcomes: true for active, false for inactive

Recorded results for 5 molecules are shown here.
- molecule: "Cc1ccc(S(=O)(=O)NC(=O)C2C(=O)CC3(CCCCC3)CC2=O)cc1"
  discrete.label: "false"
- molecule: "Cc1cccc(C)c1NC(=O)CCC(=O)C(C)C(=O)c1ccc(O)cc1 (stereo unspecified)"
  discrete.label: "false"
- molecule: "CCCN=Cc1cc(Cc2ccc(O)c(C=NCCC)c2)ccc1O"
  discrete.label: "true"
- molecule: "CS(=O)(=O)O.[Ag]"
  discrete.label: "true"
- molecule: "OC(CC(O)(C(F)(F)F)C(F)(F)F)c1ccc(C(O)CC(O)(C(F)(F)F)C(F)(F)F)cc1 (stereo unspecified)"
  discrete.label: "false"

Task: Hi team, can someone confirm the assay call for CC1=CC(=O)C=CC1=Nc1cc(Cl)c(O)c(Cl)c1 ?
Output: false

Task: What call does the record list for C[n+]1c(-c2ccc(/C=N/NC(=O)c3ccc(C(=O)N/N=C/c4ccc(-c5cn6ccccc6[n+]5C)cc4)cc3)cc2)cn2ccccc21 ?
Output: false

Task: Answer briefly: the call reported for N#CC1OB(O)c2ccccc21 (stereo unspecified) in this assay.
Output: false

Task: Can you look up the reported call for C/C(=N/NC(=S)Nc1ccccc1C)c1ccccn1 for me?
Output: false

Task: Per the records of this test, what outcome belongs to CC(C)(Br)C(=O)/C=C/c1ccccc1 ?
Output: true

Task: Recorded test outcome, item CC1CN(/N=C\c2ccc([N+](=O)[O-])o2)C(=O)O1 (stereo unspecified)
Output: false
